experiment: total protein half-life in vivo (active degradation + dilution); higher = more stable protein; conditions: wild type E. coli NCM3722; growth: P-lim chemostat; doubling time 12 h
What total protein half-life in vivo was measured for each of the following?
Write the numeric value and append its unit.

Sample records with total protein half-life in vivo:
# Residue Codes, total protein half-life in vivo
rows = [
    ("MFKKSVLFATLLSGVMAFSTNADDKIILKHISVSSVSASPTVLEDTIADIARKYNASSWKVTSMRIDNNSTATAVLYK", "11.5 h"),
    ("MPFRSNNPITRDELLSRFFPQYHPVTTFNSGLSGGSFLIEHQGQRFVVRQPHDPDAPQSAFLRQYRALSQLPACIAPKPHLYLRDWMVVDYLPGAVKTYLPDTNELAGLLYYLHQQPRFGWRITLLPLLELYWQQSDPARRTVGWLRMLKRLRKAREPRPLRLSPLHMDVHAGNLVHSASGLKLIDWEYAGDGDIALELAAVWVENTEQHRQLVNDYATRAKIYPAQLWRQVRRWFPWLLMLKAGWFEYRWRQTGDQQFIRLADDTWRQLLIKQ", "11.1 h"),
    ("MNNTPRYPQRVRNDLRFRELTVLRVERISAGFQRIVLGGEALDGFTSRGFDDHSKLFFPQPDAHFVPPTVTEEGIVWPEGPRPPSRDYTPLYDELRHELAIDFFIHDGGVASGWAMQAQPGDKLTVAGPRGSLVVPEDYAYQLYVCDESGMPALRRRLETLSKLAVKPQVSALVSVRDNACQDYLAHLDGFNIEWLAHDEQAVDARLAQMQIPADDYFIWITGEGKVVKNLSRRFEAEQYDPQRVRAAAYWHAK", "12.1 h"),
]

Moving on to another sequence below.
Entry MGQLIDGVWHDTWYDTKSTGGKFQRSASAFRNWLTADGAPGPTGTGGFIAEKDRYHLYVSLACPWAHRTLIMRKLKGLEPFISVSVVNPLMLENGWTFDDSFPGATGDTLYQNEFLYQLYLHADPHYSGRVTVPVLWDKKNHTIVSNESAEIIRMFNTAFDALGAKAGDYYPPALQTKIDELNGWIYDTVNNGVYKAGFATSQEAYDEAVAKVFESLARLEQILGQHRYLTGNQLTEADIRLWTTLVRFDPVYVTHFKCDKHRISDYLNLYGFLRDIYQMPGIAETVNFDHIRNHYFRSHKTINPTGIISIGPWQDLDEPHGRDVRFG , total protein half-life in vivo reported as 12.3 h

* * *

assay: total protein half-life in vivo (active degradation + dilution); higher = more stable protein; conditions: wild type E. coli NCM3722; growth: C-lim chemostat; doubling time 6 h
Property Label: total protein half-life in vivo
Give the value; after it, write the unit.

Worked set:
# Residue Codes, total protein half-life in vivo
records = [
    ("MVKKAIVTAMAVISLFTLMGCNNRAEVDTLSPAQAAELKPMPQSWRGVLPCADCEGIETSLFLEKDGTWVMNERYLGAREEPSSFASYGTWARTADKLVLTDSKGEKSYYRAKGDALEMLDREGNPIESQFNYTLEAAQSSLPMTPMTLRGMYFYMADAATFTDCATGKRFMVANNAELERSYLAARGHSEKPVLLSVEGHFTLEGNPDTGAPTKVLAPDTAGKFYPNQDCSSLGQ", "6.4 h"),
    ("MIDYTAAGFTLLQGAHLYAPEDRGICDVLVANGKIIAVASNIPSDIVPNCTVVDLSGQILCPGFIDQHVHLIGGGGEAGPTTRTPEVALSRLTEAGVTSVVGLLGTDSISRHPESLLAKTRALNEEGISAWMLTGAYHVPSRTITGSVEKDVAIIDRVIGVKCAISDHRSAAPDVYHLANMAAESRVGGLLGGKPGVTVFHMGDSKKALQPIYDLLENCDVPISKLLPTHVNRNVPLFEQALEFARKGGTIDITSSIDEPVAPAEGIARAVQAGIPLARVTLSSDGNGSQPFFDDEGNLTHIGVAGFETLLETVQVLVKDYDFSISDALRPLTSSVAGFLNLTGKGEILPGNDADLLVMTPELRIEQVYARGKLMVKDGKACVKGTFETA", "5.97 h"),
]

Quick note, total protein half-life in vivo for MIIYLHGFDSNSPGNHEKVLQLQFIDPDVRLISYSTRHPKHDMQHLLKEVDKMLQLNVDERPLICGVGLGGYWAERIGFLCDIRQVIFNPNLFPYENMEGKIDRPEEYADIATKCVTNFREKNRDRCLVILSRNDEALNSQRTSEELHHYYEIVWDEEQTHKFKNISPHLQRIKAFKTLG [P0A8E1] landed at 4.65 h

* * *

assay: total protein half-life in vivo (active degradation + dilution); higher = more stable protein; conditions: E. coli NCM3722 delta-lon; growth: N-lim chemostat; doubling time 6 h
Classify as follows. Reported total protein half-life in vivo greater than or equal to 5 h: MET. Reported total protein half-life in vivo below: NOT MET.

# Residue Codes, Group Label
records = [
    ("MATTHLDVCAVVPAAGFGRRMQTECPKQYLSIGNQTILEHSVHALLAHPRVKRVVIAISPGDSRFAQLPLANHPQITVVDGGDERADSVLAGLKAAGDAQWVLVHDAARPCLHQDDLARLLALSETSRTGGILAAPVRDTMKRAEPGKNAIAHTVDRNGLWHALTPQFFPRELLHDCLTRALNEGATITDEASALEYCGFHPQLVEGRADNIKVTRPEDLALAEFYLTRTIHQENT", "NOT MET"),
    ("MATTQQSGFAPAASPLASTIVQTPDDAIVAGFTSIPSQGDNMPAYHARPKQSDGPLPVVIVVQEIFGVHEHIRDICRRLALEGYLAIAPELYFREGDPNDFADIPTLLSGLVAKVPDSQVLADLDHVASWASRNGGDVHRLMITGFCWGGRITWLYAAHNPQLKAAVAWYGKLTGDKSLNSPKQPVDIATDLNAPILGLYGGQDNSIPQESVETMRQALRAANAKAEIIVYPDAGHAFNADYRPSYHAASAEDGWQRMLEWFKQYGGKKSL", "NOT MET"),
    ("MLNIVLYEPEIPPNTGNIIRLCANTGFRLHIIEPMGFAWDDKRLRRAGLDYHEFTAVTRHHDYRAFLEAENPQRLFALTTKGTPAHSAVSYQDGDYLMFGPETRGLPASILDALPAEQKIRIPMVPDSRSMNLSNAVSVVVYEAWRQLGYPGAVLRD [P0AGJ7]", "MET"),
]

Decide: is the reported value of total protein half-life in vivo for MKITVLGCGALGQLWLTALCKQGHEVQGWLRVPQPYCSVNLVETDGSIFNESLTANDPDFLATSDLLLVTLKAWQVSDAVKSLASTLPVTTPILLIHNGMGTIEELQNIQQPLLMGTTTHAARRDGNVIIHVANGITHIGPARQQDGDYSYLADILQTVLPDVAWHNNIRAELWRKLAVNCVINPLTAIWNCPNGELRHHPQEIMQICEEVAAVIEREGHHTSAEDLRDYVMQVIDATAENISSMLQDIRALRHTEIDYINGFLLRRARAHGIAVPENTRLFEMVKRKESEYERIGTGLPRPW [P0A9J4] equal to or greater than 5 h? NOT MET

Evaluate MNMKTIEDVFIHLLSDTYSAEKQLTRALAKLARATSNEKLSQAFHAHLEETHGQIERIDQVVESESNLKIKRMKCVAMEGLIEEANEVIESTEKNEVRDAALIAAAQKVEHYEIASYGTLATLAEQLGYRKAAKLLKETLEEEKATDIKLTDLAINNVNKKAENKA : total protein half-life in vivo at minimum 5 h? MET

Decide: is the reported value of total protein half-life in vivo for MELKDYYAIMGVKPTDDLKTIKTAYRRLARKYHPDVSKEPDAEARFKEVAEAWEVLSDEQRRAEYDQMWQHRNDPQFNRQFHHGDGQSFNAEDFDDIFSSIFGQHARQSRQRPATRGHDIEIEVAVFLEETLTEHKRTISYNLPVYNAFGMIEQEIPKTLNVKIPAGVGNGQRIRLKGQGTPGENGGPNGDLWLVIHIAPHPLFDIVGQDLEIVVPVSPWEAALGAKVTVPTLKESILLTIPPGSQAGQRLRVKGKGLVSKKQTGDLYAVLKIVMPPKPDENTAALWQQLADAQSSFDPRKDWGKA equal to or greater than 5 h? MET

Test whether the sequence MIEFVYPHTQLVAGVDEVGRGPLVGAVVTAAVILDPARPIAGLNDSKKLSEKRRLALYEEIKEKALSWSLGRAEPHEIDELNILHATMLAMQRAVAGLHIAPEYVLIDGNRCPKLPMPAMAVVKGDSRVPEISAASILAKVTRDAEMAALDIVFPQYGFAQHKGYPTAFHLEKLAEHGATEHHRRSFGPVKRALGLAS records total protein half-life in vivo of 5 h or higher. NOT MET

Decide: is the reported value of total protein half-life in vivo for MIISAASDYRAAAQRILPPFLFHYMDGGAYSEYTLRRNVEDLSEVALRQRILKNMSDLSLETTLFNEKLSMPVALAPVGLCGMYARRGEVQAAKAADAHGIPFTLSTVSVCPIEEVAPAIKRPMWFQLYVLRDRGFMRNALERAKAAGCSTLVFTVDMPTPGARYRDAHSGMSGPNAAMRRYLQAVTHPQWAWDVGLNGRPHDLGNISAYLGKPTGLEDYIGWLGNNFDPSISWKDLEWIRDFWDGPMVIKGILDPEDARDAVRFGADGIVVSNHGGRQLDGVLSSARALPAIADAVKGDIAILADSGIRNGLDVVRMIALGADTVLLGRAFLYALATAGQAGVANLLNLIEKEMKVAMTLTGAKSISEITQDSLVQGLGKELPAALAPMAKGNAA equal to or greater than 5 h? NOT MET

Quick check, total protein half-life in vivo >= 5 h? MSRRNTDAITIHSILDWIEDNLESPLSLEKVSERSGYSKWHLQRMFKKETGHSLGQYIRSRKMTEIAQKLKESNEPILYLAERYGFESQQTLTRTFKNYFDVPPHKYRMTNMQGESRFLHPLNHYNS [P0ACH5] MET

Threshold query (total protein half-life in vivo >= 5 h) on MATAKKITIHDVALAAGVSVSTVSLVLSGKGRISTATGERVNAAIEELGFVRNRQASALRGGQSGVIGLIVRDLSAPFYAELTAGLTEALEAQGRMVFLLHGGKDGEQLAQRFSLLLNQGVDGVVIAGAAGSSDDLRRMAEEKAIPVIFASRASYLDDVDTVRPDNMQAAQLLTEHLIRNGHQRIAWLGGQSSSLTRAERVGGYCATLLKFGLPFHSDWVLECTSSQKQAAEAITALLRHNPTISAVVCYNETIAMGAWFGLLKAGRQSGESGVDRYFEQQVSLAAFTDATPTTLDDIPVTWASTPARELGITLADRMMQKITHEETHSRNLIIPARLIAAK MET

Exam item: decide whether the reported total protein half-life in vivo for MQFSKMHGLGNDFMVVDAVTQNVFFSPELIRRLADRHLGVGFDQLLVVEPPYDPELDFHYRIFNADGSEVAQCGNGARCFARFVRLKGLTNKRDIRVSTANGRMVLTVTDDDLVRVNMGEPNFEPSAVPFRANKAEKTYIMRAAEQTILCGVVSMGNPHCVIQVDDVDTAAVETLGPVLESHERFPERANIGFMQVVKREHIRLRVYERGAGETQACGSGACAAVAVGIQQGLLAEEVRVELPGGRLDIAWKGPGHPLYMTGPAVHVYDGFIHL [P0A6K1] is at least 5 h. MET

All figures here come from the supplement of paper PMC11246515.
